- Test system: serpina3
- protocol.text: Real-time quantitative PCR of PLsis marker gene expression
- Format: cell-based, human
- setup.conditions: HepG2 cells, 24 hr exposure, relative value, control group = 1.0, GAPDH internal standard, n=3
measured.parameter: expression variation rate serpina3

Observe how each entry below is paired with its result.
Quick one: expression variation rate serpina3 for CN(C)CCCN1c2ccccc2CCc2ccc(Cl)cc21 [clomipramine] ?
2.03

Quick one: expression variation rate serpina3 for CN1CCN(C(c2ccccc2)c2ccc(Cl)cc2)CC1 (stereo not shown) [chlorcyclizine] ?
2.23

Quick one: expression variation rate serpina3 for CC/C(=C(\c1ccccc1)c1ccc(OCCN(C)C)cc1)c1ccccc1 [tamoxifen] ?
2.12

Quick one: expression variation rate serpina3 for CN(C)C/C=C(/c1ccc(Br)cc1)c1cccnc1 [zimelidine] ?
1.95

Quick one: expression variation rate serpina3 for O=C(NCC1CCCCN1)c1cc(OCC(F)(F)F)ccc1OCC(F)(F)F (stereo not shown) [flecainide] ?
1.60

Quick one: expression variation rate serpina3 for CN1CCN(C2=Nc3cc(Cl)ccc3Nc3ccccc32)CC1 [clozapine] ?
1.96

Quick one: expression variation rate serpina3 for CC[C@H]1OC(=O)[C@H](C)[C@@H](O[C@H]2C[C@@](C)(OC)[C@@H](O)[C@H](C)O2)[C@H](C)[C@@H](O[C@@H]2O[C@H](C)C[C@H](N(C)C)[C@H]2O)[C@](C)(O)C[C@@H](C)C(=O)[C@H](C)[C@@H](O)[C@]1(C)O [erythromycin] ?
0.85

Quick one: expression variation rate serpina3 for O=C(CCCN1CCC(O)(c2ccc(Cl)cc2)CC1)c1ccc(F)cc1 [haloperidol] ?
1.31

A: C[C@H]1COc2c(N3CCN(C)CC3)c(F)cc3c(=O)c(C(=O)O)cn1c23 [levofloxacin]
B: CN(C)CCCN1c2ccccc2Sc2ccc(Cl)cc21 [chlorpromazine]
Consider A and B . Which of these has its expression variation rate serpina3 at a higher number? Identify your selection by its label.
B

====

- Test system: serpina3
- protocol.text: Real-time quantitative PCR of PLsis marker gene expression
- Assay type: cell-based, human
- setup.conditions: HepG2 cells, 24 hr exposure, relative value, control group = 1.0, GAPDH internal standard, n=3
- Description: Using RNeasy Mini Kit (QIAGEN), total RNA was purified from the cells, and cDNA was synthesized in a 100 μL system using TaqMan Reverse Transcription Reagents (PE Applied Biosystems). As the primer for glyceraldehyde-3-phosphoric acid dehydrogenase (GAPDH) and VIC labeled probe, those attached to TaqMan GAPDH Control Reagents (PE Applied Biosystems) were used. […] For each test compound, the expression variation rate of 12 genes each relative to the control group was determined.
measured.parameter: expression variation rate serpina3

Quick one: expression variation rate serpina3 for Cc1cc(NS(=O)(=O)c2ccc(N)cc2)no1 [sulfamethoxazole] ?
0.98

Quick one: expression variation rate serpina3 for N=C(N)c1ccc(OCCCCCOc2ccc(C(=N)N)cc2)cc1 [pentamidine] ?
2.12

Quick one: expression variation rate serpina3 for CC(C)NCC(O)c1ccc(NS(C)(=O)=O)cc1 (stereo not shown) [sotalol] ?
0.78

1: CN[C@H]1CC[C@@H](c2ccc(Cl)c(Cl)c2)c2ccccc21 [sertraline]
2: CNCCC(Oc1ccc(C(F)(F)F)cc1)c1ccccc1 (stereo not shown) [fluoxetine]
3: CC(=O)Nc1ccc(O)cc1 [acetaminophen]
List by increasing expression variation rate serpina3. Arrange the labels as the request states and list them.
3, 2, 1

1: CN(C)CCCN1c2ccccc2CCc2ccccc21 [imipramine]
2: CCN(CC)CCNC(=O)c1ccc(N)cc1 [procainamide]
Consider 1 and 2 . Which of these has its expression variation rate serpina3 at a higher number? Identify your selection by its label.
1
(1: 2.12, 2: 0.96)

P: CC(=O)N1CCN(c2ccc(OCC3COC(Cn4ccnc4)(c4ccc(Cl)cc4Cl)O3)cc2)CC1 (stereo not shown) [ketoconazole]
Q: CNS(=O)(=O)Cc1ccc2[nH]cc(CCN(C)C)c2c1 [sumatriptan]
Lab log: flag the item ( P or Q ) with the smaller expression variation rate serpina3 figure. Identify your selection by its label.
Q
